Known FACS reading of a selection of binders
- system.tested: T1, Claudin 18.2 (CLDN18.2), expressed on CHOS-CLDN 18.2 / HEK293-CLDN 18.2 / HCC827-CLDN 18.2 cells (human, UniProt P56856-2 1-261)
- T1 construct: whole, on cells; The species is not repeated for the CHOS-CLDN 18.2 cells; also called claudin-18A2
- assay.details: FACS, CHOS-CLDN18.2 cells, 0.020 µg/ml
API note: the answer field is a bare number with no unit suffix.

binder	FACS reading
QP14641460 (antibody, human IgG1, kappa, V domains shown, Humanized from QP207208) VH: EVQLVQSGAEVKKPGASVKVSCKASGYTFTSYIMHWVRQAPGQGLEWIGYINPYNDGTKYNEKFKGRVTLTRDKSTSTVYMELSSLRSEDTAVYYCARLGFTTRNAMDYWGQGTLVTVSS VL: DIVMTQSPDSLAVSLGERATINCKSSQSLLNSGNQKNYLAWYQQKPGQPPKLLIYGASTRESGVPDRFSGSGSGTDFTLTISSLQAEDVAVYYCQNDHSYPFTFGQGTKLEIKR	16200

Pending binder:
q: For QP14641462 (antibody, human IgG1, kappa, V domains shown, Humanized from QP207208) VH: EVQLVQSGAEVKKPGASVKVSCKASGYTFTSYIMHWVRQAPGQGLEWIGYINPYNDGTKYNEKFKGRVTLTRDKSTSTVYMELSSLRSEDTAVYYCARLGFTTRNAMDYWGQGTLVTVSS VL: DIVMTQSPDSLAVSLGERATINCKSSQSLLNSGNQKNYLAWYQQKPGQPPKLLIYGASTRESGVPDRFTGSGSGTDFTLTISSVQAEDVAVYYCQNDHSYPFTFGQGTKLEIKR , write its FACS reading.
a: 15800
